# Tested on: BC4-M5M7
# method.summary: Test B greenhouse phytotoxicity, BC4-M5M7
# Format: in vivo, sunflower
# test.conditions: in vivo
Structures can show the parent of a compound that is named as a salt.
Outcome: criterion met for Maximum Phytotoxicity of at least 40%; criterion not met for anything lower.

> print(dat)
                                   compound   class.assignment
1  COc1cc(OC)nc(NC(=O)NS(=O)(=O)N(C)S(C)(=O)=O)n1 [Amidosulfuron, amidosulfuron]      criterion met
2  COC(=O)c1ccc(C(F)(F)F)nc1S(=O)(=O)NC(=O)Nc1nc(OC)cc(OC)n1 [Flupyrsulfuron-methyl-sodium]      criterion met
3  CCS(=O)(=O)c1cccnc1S(=O)(=O)NC(=O)Nc1nc(OC)cc(OC)n1 [Rimsulfuron, rimsulfuron]      criterion met
4  COc1cc(OC)nc(Sc2cccc(Cl)c2C(=O)O)n1 [Pyrithiobac-sodium]  criterion not met
5  CCc1cnc(C2=NC(C)(C(C)C)C(=O)N2)c(C(=O)O)c1 (centres unmarked) [Imazethapyr (ammonium salt), Imazethapyr]  criterion not met
6  CCS(=O)(=O)c1nc2ccccn2c1S(=O)(=O)NC(=O)Nc1nc(OC)cc(OC)n1 [Sulfosulfuron]      criterion met

Qu. For this compound, is measured Maximum Phytotoxicity 40% or higher? COC(=O)c1ccccc1S(=O)(=O)NC(=O)N(C)c1nc(C)nc(OC)n1 [Tribenuron-methyl, tribenuron-methyl]
Ans. criterion not met

Qu. For this compound, is measured Maximum Phytotoxicity 40% or higher? COc1nc(C)nc(NC(=O)NS(=O)(=O)c2ccccc2Cl)n1 [Chlorsulfuron, chlorsulfuron]
Ans. criterion met

###

# Test system: M5M7
# method.summary: Test B greenhouse phytotoxicity, M5M7
# Assay type: in vivo, sunflower
# test.conditions: in vivo
Counter-ions that a name gives are not always drawn.
Outcome: true (1) for Maximum Phytotoxicity of at least 50%; false (0) for anything lower.

Example cases with answers are listed next.
> print(dat)
                                   compound  assayed.system  class.assignment
1  COc1cc(OC)nc(NC(=O)NS(=O)(=O)N(C)S(C)(=O)=O)n1            M5M7          true (1)
2  COC(=O)c1ccccc1S(=O)(=O)NC(=O)N(C)c1nc(C)nc(OC)n1            M5M7         false (0)
3  COc1nc(C)nc(NC(=O)NS(=O)(=O)c2ccccc2Cl)n1            M5M7         false (0)
4  CCc1cnc(C2=NC(C)(C(C)C)C(=O)N2)c(C(=O)O)c1 (centres unmarked) [Imazethapyr (ammonium salt), Imazethapyr]            M5M7         false (0)
5  CCS(=O)(=O)c1cccnc1S(=O)(=O)NC(=O)Nc1nc(OC)cc(OC)n1            M5M7          true (1)

Qu. For this compound, is measured Maximum Phytotoxicity 50% or higher? COC(=O)c1ccc(C(F)(F)F)nc1S(=O)(=O)NC(=O)Nc1nc(OC)cc(OC)n1 [Flupyrsulfuron-methyl-sodium]
Ans. true (1)

Qu. For this compound, is measured Maximum Phytotoxicity 50% or higher? COc1cc(OC)nc(Sc2cccc(Cl)c2C(=O)O)n1 [Pyrithiobac-sodium]
Ans. false (0)
